procedure.text: 14-day IV study in rat (toxicology exposure)
Assay type: in vivo
stated.conditions: in vivo; rat (male), 14-day IV study, 300 mg/kg; read-out: AUClast, maximum exposure
readout.label: AUC(0-t) (µg·h/mL)
// return numeric value only (unit: µg·h/mL, not printed)

Record request: AUC(0-t) value, item COc1cccc(OC)c1-n1c(NS(=O)(=O)[C@@H](C)[C@H](C)c2ncc(C)cn2)nnc1-c1cncc(C)c1
1070

====

procedure.text: Phase 1 study BGE-105-101 Part A (SAD), pharmacokinetics after IV infusion
Assay type: in vivo, human
stated.conditions: human, plasma, intravenous, 240 mg, SAD3 (240 mg/1440 mg), Day 1; mean; read-out: AUC0-24
readout.label: AUC(0-t) (µg·h/mL)
// return numeric value only (unit: µg·h/mL, not printed)

Record request: AUC(0-t) value, item COc1cccc(OC)c1-n1c(NS(=O)(=O)[C@@H](C)[C@H](C)c2ncc(C)cn2)nnc1-c1cncc(C)c1 [BGE-105]
107

====

procedure.text: Phase 1 study BGE-105-101 Part A (SAD), pharmacokinetics after IV infusion
Format: in vivo, human
stated.conditions: human, plasma, intravenous, SAD2 (120 mg/720 mg), Day 3; mean; read-out: AUClast
readout.label: AUC(0-t) (µg·h/mL)
// return numeric value only (unit: µg·h/mL, not printed)

Record request: AUC(0-t) value, item COc1cccc(OC)c1-n1c(NS(=O)(=O)[C@@H](C)[C@H](C)c2ncc(C)cn2)nnc1-c1cncc(C)c1
450

====

procedure.text: Phase 1 study BGE-105-101 Part A (SAD), pharmacokinetics after IV infusion
Type: in vivo, human
stated.conditions: human, plasma, intravenous; SAD1 (60 mg/360 mg), Day 1; mean
readout.label: half-life (h)
// return numeric value only (unit: h, not printed)

Record request: half-life value, item COc1cccc(OC)c1-n1c(NS(=O)(=O)[C@@H](C)[C@H](C)c2ncc(C)cn2)nnc1-c1cncc(C)c1
9.1

====

procedure.text: Phase 1 study BGE-105-101 Part A (SAD), pharmacokinetics after IV infusion
Type: in vivo, human
stated.conditions: human, plasma, intravenous; SAD3 (240 mg/1440 mg), Day 1; mean
readout.label: half-life (h)
// return numeric value only (unit: h, not printed)

Record request: half-life value, item COc1cccc(OC)c1-n1c(NS(=O)(=O)[C@@H](C)[C@H](C)c2ncc(C)cn2)nnc1-c1cncc(C)c1
8.9

====

procedure.text: Phase 1 study BGE-105-101 Part A (SAD), pharmacokinetics after IV infusion
Assay type: in vivo, human
stated.conditions: human, plasma, intravenous, SAD2 (120 mg/720 mg), Day 3; mean; read-out: AUC0-24
readout.label: AUC(0-t)

Record request: AUC(0-t) value, item COc1cccc(OC)c1-n1c(NS(=O)(=O)[C@@H](C)[C@H](C)c2ncc(C)cn2)nnc1-c1cncc(C)c1
267 µg·h/mL

====

procedure.text: Phase 1 study BGE-105-101 Part A (SAD), pharmacokinetics after IV infusion
Type: in vivo, human
stated.conditions: human, plasma, intravenous; SAD2 (120 mg/720 mg), Day 1; mean
readout.label: AUC(0-inf) (ng·h/mL)
// return numeric value only (unit: ng·h/mL, not printed)

Record request: AUC(0-inf) value, item COc1cccc(OC)c1-n1c(NS(=O)(=O)[C@@H](C)[C@H](C)c2ncc(C)cn2)nnc1-c1cncc(C)c1
58800

====

procedure.text: Phase 1 study BGE-105-101 Part A (SAD), pharmacokinetics after IV infusion
Format: in vivo, human
stated.conditions: SAD2 (120 mg/720 mg), Day 1; mean; unit assumed
readout.label: Dose-normalized AUCinf (µg·h/mL/mg)
// return numeric value only (unit: µg·h/mL/mg, not printed)

Record request: Dose-normalized AUCinf value, item COc1cccc(OC)c1-n1c(NS(=O)(=O)[C@@H](C)[C@H](C)c2ncc(C)cn2)nnc1-c1cncc(C)c1 [BGE-105]
0.49

====

procedure.text: Phase 1 study BGE-105-101 Part A (SAD), pharmacokinetics after IV infusion
Format: in vivo, human
stated.conditions: human, plasma, iv, SAD3 (240 mg/1440 mg), Day 3; IV infusion; mean
readout.label: Cmax (ng/mL)
// return numeric value only (unit: ng/mL, not printed)

Record request: Cmax value, item COc1cccc(OC)c1-n1c(NS(=O)(=O)[C@@H](C)[C@H](C)c2ncc(C)cn2)nnc1-c1cncc(C)c1
35600

====

procedure.text: Phase 1 study BGE-105-101 Part A (SAD), pharmacokinetics after IV infusion
Assay type: in vivo, human
stated.conditions: human, plasma, iv, 60 mg, SAD1 (60 mg/360 mg), Day 1; IV infusion; mean
readout.label: Cmax (ng/mL)
// return numeric value only (unit: ng/mL, not printed)

Record request: Cmax value, item COc1cccc(OC)c1-n1c(NS(=O)(=O)[C@@H](C)[C@H](C)c2ncc(C)cn2)nnc1-c1cncc(C)c1
7430

====

procedure.text: Phase 1 study BGE-105-101 Part A (SAD), pharmacokinetics after IV infusion
Type: in vivo, human
stated.conditions: SAD2 (120 mg/720 mg), Day 1; mean; unit assumed
readout.label: Dose-normalized Cmax (µg/mL/mg)
// return numeric value only (unit: µg/mL/mg, not printed)

Record request: Dose-normalized Cmax value, item COc1cccc(OC)c1-n1c(NS(=O)(=O)[C@@H](C)[C@H](C)c2ncc(C)cn2)nnc1-c1cncc(C)c1
0.11

====

procedure.text: Phase 1 study BGE-105-101 Part A (SAD), pharmacokinetics after IV infusion
Type: in vivo, human
stated.conditions: human, plasma, intravenous, highest dose (240 mg/1440 mg); read-out: AUClast
Procedure: After a baseline period of 24 hours in the clinic, all subjects receive a LD, 1-hour infusion on Day 1. After a 48-hour wash-out period, in which PK and PK/PD data is collected, subjects receive a 23-hour infusion (1-hour LD followed by a 22-hour maintenance dose). See FIG. 10 for the different dose levels in each SAD cohort. See e.g., Table 3 below. Part A is double-blinded. The cohorts of Part A is conducted sequentially starting with SAD cohort 1. […]
readout.label: AUC(0-t) (µg·h/mL)
// return numeric value only (unit: µg·h/mL, not printed)

Record request: AUC(0-t) value, item COc1cccc(OC)c1-n1c(NS(=O)(=O)[C@@H](C)[C@H](C)c2ncc(C)cn2)nnc1-c1cncc(C)c1
1060

====

procedure.text: Phase 1 study BGE-105-101 Part A (SAD), pharmacokinetics after IV infusion
Assay type: in vivo, human
stated.conditions: SAD3 (240 mg/1440 mg), Day 1; mean; unit assumed
readout.label: Dose-normalized AUCinf (µg·h/mL/mg)
// return numeric value only (unit: µg·h/mL/mg, not printed)

Record request: Dose-normalized AUCinf value, item COc1cccc(OC)c1-n1c(NS(=O)(=O)[C@@H](C)[C@H](C)c2ncc(C)cn2)nnc1-c1cncc(C)c1 [BGE-105]
0.5

====

target.or.system: mouse APLNR (Mus musculus, UniProt Q9WV08)
Sequence (Q9WV08 whole entry): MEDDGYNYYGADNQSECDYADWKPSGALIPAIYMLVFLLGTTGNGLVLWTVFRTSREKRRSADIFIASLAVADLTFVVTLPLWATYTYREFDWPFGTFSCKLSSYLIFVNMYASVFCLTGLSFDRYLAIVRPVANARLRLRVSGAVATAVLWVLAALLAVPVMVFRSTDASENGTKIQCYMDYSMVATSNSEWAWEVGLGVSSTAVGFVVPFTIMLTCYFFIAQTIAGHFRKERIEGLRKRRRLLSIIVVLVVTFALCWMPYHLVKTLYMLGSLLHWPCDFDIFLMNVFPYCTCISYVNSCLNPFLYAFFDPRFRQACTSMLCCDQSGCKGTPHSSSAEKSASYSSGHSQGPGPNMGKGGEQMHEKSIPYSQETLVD
procedure.text: PathHunter β-arrestin eXpress GPCR assay, CHO cells stably expressing mouse APLNR
readout.label: pEC50
The read-out pEC50 is expressed as -log10 of concentration in moles per litre.

Record request: pEC50 value, item COc1cccc(OC)c1-n1c(NS(=O)(=O)[C@@H](C)[C@H](C)c2ncc(C)cn2)nnc1-c1cncc(C)c1
9.10

====

procedure.text: Phase 1 study BGE-105-101 Part A (SAD), pharmacokinetics after IV infusion
Assay type: in vivo, human
stated.conditions: SAD1 (60 mg/360 mg), Day 1; mean; unit assumed
readout.label: Dose-normalized Cmax (µg/mL/mg)
// return numeric value only (unit: µg/mL/mg, not printed)

Record request: Dose-normalized Cmax value, item COc1cccc(OC)c1-n1c(NS(=O)(=O)[C@@H](C)[C@H](C)c2ncc(C)cn2)nnc1-c1cncc(C)c1
0.12

====

procedure.text: Phase 1 study BGE-105-101 Part A (SAD), pharmacokinetics after IV infusion
Assay type: in vivo, human
stated.conditions: human, plasma, iv, 120 mg, SAD2 (120 mg/720 mg), Day 1; IV infusion; mean
readout.label: Cmax (ng/mL)
// return numeric value only (unit: ng/mL, not printed)

Record request: Cmax value, item COc1cccc(OC)c1-n1c(NS(=O)(=O)[C@@H](C)[C@H](C)c2ncc(C)cn2)nnc1-c1cncc(C)c1
13700

====

procedure.text: Phase 1 study BGE-105-101 Part A (SAD), pharmacokinetics after IV infusion
Assay type: in vivo, human
stated.conditions: human, plasma, intravenous, 240 mg, SAD3 (240 mg/1440 mg), Day 1; mean; read-out: AUClast
readout.label: AUC(0-t) (µg·h/mL)
// return numeric value only (unit: µg·h/mL, not printed)

Record request: AUC(0-t) value, item COc1cccc(OC)c1-n1c(NS(=O)(=O)[C@@H](C)[C@H](C)c2ncc(C)cn2)nnc1-c1cncc(C)c1
114
